This collection of values is drawn from patent US8394773B2.

System: PGE2
ASSAY_INFO: Quantification of the release of PGE2 into culture supernatants of HaCaT keratinocytes (immunoenzymatic kit, related to total proteins)
Format: cell-based
RUN_CONDITIONS: alkyl glycoside alone at 1 μM, 24 hours, HaCaT; control (-) = 100
Please respond with reported Liberation PGE2 (%) for every item in the list.
Give the value; after it, write the unit.

[[record]]
compound = "CO[C@@H]1O[C@H](CO)[C@@H](O[C@H]2O[C@H](CO)[C@@H](O)[C@H](O)[C@H]2O)[C@H](O)[C@H]1O [DP2-1, methyl beta-D-maltoside]"
system_tested = "PGE2"
value_reported = "41.8%"

[[record]]
compound = "CO[C@@H]1O[C@H](CO)[C@@H](O[C@H]2O[C@H](CO)[C@@H](O[C@H]3O[C@H](CO)[C@@H](O)[C@H](O)[C@H]3O)[C@H](O)[C@H]2O)[C@H](O)[C@H]1O [DP3-1, methyl beta-D-maltotrioside]"
system_tested = "PGE2"
value_reported = "50.9%"

[[record]]
compound = "CCCCCCCCCCCCO[C@@H]1O[C@H](CO)[C@@H](O)[C@H](O)[C@H]1O [DP1-12, n-dodecyl-beta-D-glucopyranoside, reference compound]"
system_tested = "PGE2"
value_reported = "47.8%"

[[record]]
compound = "CCCCCCCCO[C@@H]1O[C@H](CO)[C@@H](O)[C@H](O)[C@H]1O [DP1-8, n-Octyl-beta-D-glucopyranoside, reference compound]"
system_tested = "PGE2"
value_reported = "99.7%"

[[record]]
compound = "CCCCCCCCCCCCO[C@@H]1O[C@H](CO)[C@@H](O[C@H]2O[C@H](CO)[C@@H](O[C@H]3O[C@H](CO)[C@@H](O)[C@H](O)[C@H]3O)[C@H](O)[C@H]2O)[C@H](O)[C@H]1O [DP3-12, dodecyl beta-D-maltotrioside]"
system_tested = "PGE2"
value_reported = "81.2%"

[[record]]
compound = "CCCCCCCCO[C@@H]1O[C@H](CO)[C@@H](O[C@H]2O[C@H](CO)[C@@H](O)[C@H](O)[C@H]2O)[C@H](O)[C@H]1O [DP2-8, octyl beta-D-maltoside]"
system_tested = "PGE2"
value_reported = "62.3%"


Missing value: Liberation PGE2 (%), PGE2, entry CCCCCCCCCCCCO[C@@H]1O[C@H](CO)[C@@H](O[C@H]2O[C@H](CO)[C@@H](O)[C@H](O)[C@H]2O)[C@H](O)[C@H]1O [DP2-12, dodecyl beta-D-maltoside] . Fill in?
50.9%
